# System: DU-145
# Test method notes: NCI tumour cell line growth inhibition, 48 h
Activity calls are given as the source filed them. No stated cut-off is given here; in the data, active = GI50 up to about 1.1 µM and inactive = higher.
Test readout: GI50

C[N+](C)(C)c1ncnc2c1ncn2C1CC(O)C(CO)O1 (configuration not stated) :: > 100 µM (inactive)

Continue with the next compound.
The compound identified as COc1ccc(-c2ncnc(-c3ccc(OC)c(OC)c3)n2)cc1OC registered its GI50 at > 100 µM (inactive)

---

# System: KM-20L2
# Test method notes: NCI tumour cell line growth inhibition, 48 h
The source made the active and inactive calls. Cut-off read from the data, not from the text of the source: active = GI50 up to about 1.1 µM and inactive = higher.
Test readout: GI50

// worked examples, GI50 included
CCO[C@]12C[C@H](OC)[C@@]3(O)CC(C1[C@H]3OCc1ccccc1)C13C4C2[C@H](OC)C1[C@](COC)(CN4CC)[C@H](O)C[C@@H]3OC (stereo partly specified) :: > 100 µM (inactive)
CC(=O)OCC1=CC2CCC3C(C)(CCC[C@]3(C)COC(C)=O)C23CC[C@H]1C3 (stereo partly specified) :: 41 µM (inactive)
CC1(C)OC2OC(COC(=O)C(c3ccccc3)c3ccccc3)C3OC(C)(C)OC3C2O1 (stereo unspecified) :: 50.2 µM (inactive)
Clc1ccc(OC2CCO2)cc1Cl (stereo unspecified) :: 76.4 µM (inactive)
CCCCCCCCCCC(C)CCCCCCC(=O)OCC(COP(=O)([O-])OCC[N+](C)(C)C)OC(=O)CCCCCCC(C)CCCCCCCCCC (stereo unspecified) :: > 100 µM (inactive)

Please turn your attention to the following entry.
// field: GI50; key: CCOP(=O)(OCC)/C(C#N)=C\c1cccc2ccccc12 ; value = > 100 µM (inactive)

---

# Tested on: Hs-578T
# Test method notes: NCI tumour cell line growth inhibition, 48 h
Calls of active or inactive are those of the source. Cut-off read from the data, not from the text of the source: active = GI50 up to about 1.1 µM and inactive = higher.
Form field: GI50 (one value per entry).

Guide cases for GI50, answers given:
CCN1CC2=C(OC(N)=C(C#N)C2c2ccc(Cl)cc2)/C(=C/c2ccc(Cl)cc2)C1 (stereo unspecified) :: 22.6 µM (inactive)
CC1(C)C(=O)C(C)(C)C12SSC1(S2)C(C)(C)C(=O)C1(C)C :: > 100 µM (inactive)
CC(C)(C)c1cc(C(=O)Nc2cc(Br)c(Br)cc2S(N)(=O)=O)cc(C(C)(C)C)c1O :: 11.9 µM (inactive)
C=CC1(c2ccc3ccccc3c2)OCC(CC)(CC)CO1 :: 18.7 µM (inactive)
Cn1c(=O)c2nc3sc4c(n3c2n(C)c1=O)C(=O)c1ccccc1C4=O :: 23.3 µM (inactive)

I looked up COc1nc2c(N3CCCC3)nc(N3CCNCC3)nc2nc1NCc1ccccc1 and its GI50 for Hs-578T was 2.08 µM (inactive)

Note to self: GI50 of CCCNc1ncnc2[nH]ncc12 with Hs-578T was > 100 µM (inactive)

Case O=C(O)c1nc2cc(Cl)ccc2[nH]c1=O , Hs-578T, GI50 recorded as > 100 µM (inactive)

Log: Hs-578T, molecule Oc1cccc(-c2nc3ccccc3s2)c1 , GI50 = 15.5 µM (inactive)

The molecule N#CCCN(CCCCN(CCC#N)C(=O)Nc1ccccc1)C(=O)Nc1ccccc1 , tested on Hs-578T, showed GI50 of > 100 µM (inactive)

The reported Hs-578T GI50 of Cc1ccc(S(=O)(=O)N/N=C2/C3C(CC2(C)C)C2(C)CCCC3(C)C2O)cc1 (stereo unspecified) is 19 µM (inactive)
